Hello, the source for this data is paper PMC11359296, in case you need it.

# experiment_summary: Caco-2 cell permeability assay
# Assay type: in vitro ADME, human
# run_conditions: Caco-2 monolayer, 21 days culture, apical to basolateral; 0.5 mg/mL according to CT content in 0.01 M phosphate buffer pH 7.2; PBS basolateral; 2 h, sampled every 30 min; B12 by spectrophotometry, CT by HPLC; mean, n = 3; read-out: apparent permeability coefficient (Papp)
Counter-ions that a name gives are not always drawn. Where a SMILES comes first, the peptide text is derived from it. Bridges are numbered along the chain shown (N, C = ends). [ ]: non-standard residue; d: D form. The star is where a group is joined. Octanoyl(6-Me) = CCC(C)CCCCC(=O)*; Dab = NCC[C@H](N)C(=O)O
reported_endpoint: Papp A→B

Prompt: Specify measured Papp A→B for CCC(C)CCCCC(=O)N[C@@H](CCN)C(=O)N[C@H](C(=O)N[C@@H](CCN)C(=O)N[C@H]1CCNC(=O)[C@H]([C@@H](C)O)NC(=O)[C@H](CCN)NC(=O)[C@H](CCN)NC(=O)[C@H](CC(C)C)NC(=O)[C@@H](CC(C)C)NC(=O)[C@H](CCN)NC1=O)[C@@H](C)O (stereo partly drawn) [CT, Polymyxin E (colistin, CT) sulfate salt] ({Octanoyl(6-Me)}-[Dab]T[Dab][Dab][Dab][dL]L[Dab][Dab]T; lactam 4-C; N-terminus assumed) .
Completion: ~3 ×10⁻⁶ cm/s
